conditions: buffer; pH 7.4; 200.0 µM
solubility kinetic reference
endpointName: solubility kinetic

>>> measurement("CCc1ccc(N2C(=O)CN(Cc3cccs3)C2=S)cc1")
"< 0.3 µg/mL"
>>> measurement("Cc1ccc(S(=O)(=O)NCCCn2ccnc2)cc1C(=O)NC(C)C")
"> 54.7 µg/mL"
>>> measurement("COc1ccccc1-c1cc(C(=O)N2CCCC2)no1")
"> 40.8 µg/mL"
>>> measurement("COc1cc(OC)c(C(=O)O/N=C(\\N)c2ccc(C)cc2)cc1OC")
"> 51.7 µg/mL"
>>> measurement("O=C(N/N=C/C1CC2CCC1C2)C1CC1 (stereo not drawn)")
"> 30.9 µg/mL"
>>> measurement("CC(C)(C)OC(=O)CN1C(=O)NC2(CCCc3ccccc32)C1=O (stereo not drawn)")
"> 49.6 µg/mL"
>>> measurement("CC(Sc1nncs1)C(=O)Nc1ccc2c(c1)OCCO2 (stereo not drawn)")
"> 48.5 µg/mL"
>>> measurement("Cc1cc(C2CC(=O)Nc3ccccc3S2)c(C)s1 (stereo not drawn)")
"< 0.6 µg/mL"
>>> measurement("COc1ccc(CSc2ncnc3sccc23)cc1F")
"< 0.3 µg/mL"
>>> measurement("CCCn1c(=S)[nH]c2cc(Cl)ccc21")
"32.3 µg/mL"
>>> measurement("S=c1sc2c(Cl)ncnc2n1-c1ccccc1")
"8.3 µg/mL"
>>> measurement("Cn1c(C(=O)c2ccccc2[N+](=O)[O-])nc2ccccc21")
"36.1 µg/mL"
>>> measurement("O=C(CCC(=O)Nc1ccc(F)cc1)N/N=C/c1cccnc1")
"> 47.1 µg/mL"
>>> measurement("O=C(CSc1nc2ncccc2[nH]1)NC1CCCCC1")
"> 43.6 µg/mL"
>>> measurement("N/C(=N\\[N+](=O)[O-])N1CCN(C(=O)OC2CCCC2)CC1")
"> 42.8 µg/mL"
>>> measurement("Cn1c(=O)c(C(=O)c2ccccc2)c(O)c2ccccc21")
"38.8 µg/mL"
>>> measurement("COc1cc(OC)cc(C(=O)NC(C(=O)N2CCC2)C(C)C)c1 (stereo not drawn)")
"> 48.1 µg/mL"
>>> measurement("Cc1cc(C)cc(-c2nnc(SCC(=O)NC3CC3)o2)c1")
"> 45.5 µg/mL"
>>> measurement("CCCC1Cc2c(sc(N)c2C#N)CO1 (stereo not drawn)")
"> 33.3 µg/mL"
>>> measurement("COc1ccc(NC(=O)CCC(=O)c2cc(C)sc2C)cc1")
"6.3 µg/mL"
>>> measurement("O=C(NC(=S)NCCC1=CCCCC1)c1cccnc1")
"22.2 µg/mL"
>>> measurement("CCN(CC(=O)Nc1ccccc1Br)C1CCCCC1")
"9.1 µg/mL"
>>> measurement("Cn1c(=O)n(CC(N)=O)c(=O)c2c1nc1n2CCCN1Cc1ccccc1")
"30.8 µg/mL"
>>> measurement("COc1cc(CCC(=O)OCC(=O)N2CC(=O)Nc3ccccc32)cc(OC)c1OC")
"> 64.3 µg/mL"
>>> measurement("O=C(c1ccc2c(c1)OCO2)N1CCc2ccccc21")
"34.9 µg/mL"
>>> measurement("c1ccc(N2CCOCCOCCOCCOCCOCC2)cc1")
"> 50.9 µg/mL"
>>> measurement("O=C(NC1CCCCNC1=O)c1ccccc1 (stereo not drawn)")
"> 34.8 µg/mL"
>>> measurement("CCOC(=O)C1=C(N)Oc2cc(O)ccc2C1c1ccc(F)cc1F (stereo not drawn)")
"< 0.7 µg/mL"
>>> measurement("CSc1nc2c(c(=O)[nH]c(=O)n2C)n1Cc1ccccc1")
"> 45.4 µg/mL"
>>> measurement("O=C(Nc1scc(-c2ccccc2)c1C(=O)O)c1ccccc1Cl")
"52.6 µg/mL"
>>> measurement("CC(C)c1cc(O)c(-c2ccccc2)c(=O)n1-c1ccc(Cl)cc1")
"< 0.7 µg/mL"
>>> measurement("CCCCn1c(N)c(N(CC)C(=O)COc2ccc(C#N)cc2)c(=O)[nH]c1=O")
"15.6 µg/mL"
>>> measurement("O=C1CCCN1CCCNc1ncccc1[N+](=O)[O-]")
"> 39.6 µg/mL"
>>> measurement("C=CCc1c(C)nc(N2CCSCC2)[nH]c1=O")
"32 µg/mL"
>>> measurement("CN(CCC#N)C(=O)CC1(Cc2ccccc2)CCOC(C)(C)C1 (stereo not drawn)")
"> 49.3 µg/mL"
>>> measurement("O=C(NCC(O)CO)c1csc(Nc2cccc3ccccc23)n1 (stereo not drawn)")
"38.5 µg/mL"
>>> measurement("COc1ccc(CNC(=O)c2csc3c2CCCC3)cc1")
"23.2 µg/mL"
>>> measurement("O/N=C(\\CN1CCCCC1)c1ccccc1")
"> 32.7 µg/mL"
